# Method description: RP, Waters ACQUITY UPLC HSS T3, 0.1 mL/min; A: water + 0.01% formic acid; B: acetonitrile + 0.01% formic acid; gradient (min/%B) 0/10 38/45 45/45 55/0 60/0
# Condition set: stereoisomer not certain
Measured parameter: log10(LC retention time) (log10 of the value in min)

- Compound: "CCCN(CCC)c1c([N+](=O)[O-])cc(S(N)(=O)=O)cc1[N+](=O)[O-]"
  Readout number: 1.61
- Compound: "CC12CCC3c4ccc(O)cc4CCC3C1CC(O)C2O (stereo not drawn)"
  Readout number: 1.07
- Compound: "Cc1cc(C2CC2)nc(Nc2ccccc2)n1"
  Readout number: 1.52
- Compound: "COc1nc(C)nc(NC(=O)NS(=O)(=O)c2ccccc2CCC(F)(F)F)n1"
  Readout number: 1.54
- Compound: "CC(=O)C1CCC2C3CCC4=CC(=O)CCC4(C)C3CCC12C (stereo not drawn)"
  Readout number: 1.62
- Compound: "COc1cc(OC)nc(NC(=O)NS(=O)(=O)c2cc(NC=O)ccc2C(=O)N(C)C)n1"
  Readout number: 1.25
- Compound: "NCCc1ccc(O)c(O)c1"
  Readout number: 0.59
- Compound: "CCC(C)n1c(=O)[nH]c(C)c(Br)c1=O (stereo not drawn)"
  Readout number: 1.16
- Compound: "COC(=O)c1ccc(C)cc1C1=NC(C)(C(C)C)C(=O)N1 (stereo not drawn)"
  Readout number: 1.15
- Compound: "CC12CCC(=O)C=C1CCC1C2C(O)CC2(C)C1CCC2(O)C(=O)CO (stereo not drawn) [Hydrocortisone]"
  Readout number: 1.20
- Compound: "CCNc1nc(NC(C)(C)C)[nH]c(=O)n1 [Tertbutylazine-2-hydroxy]"
  Readout number: 0.92
- Compound: "CC(C)(C)C(O)C(Cc1ccc(Cl)cc1)n1cncn1 (stereo not drawn)"
  Readout number: 1.50
- Compound: "CNC1=C(c2cccc(C(F)(F)F)c2)C(=O)C(c2ccccc2)O1 (stereo not drawn)"
  Readout number: 1.53
- Compound: "CN1C(=O)CCC1c1ccc[n+](C2OC(C(=O)[O-])C(O)C(O)C2O)c1 (stereo not drawn) [Cotinine glucuronide]"
  Readout number: 0.15
- Compound: "CCCCCC=CCC=CCC=CCC=CCCCC(=O)O"
  Readout number: 1.67
- Compound: "CCNc1nc(NC(C)(C)C)nc(SC)n1"
  Readout number: 1.45
- Compound: "CC(C)Cc1ccc(C(C)C(=O)O)cc1 (stereo not drawn)"
  Readout number: 1.60
- Compound: "COP(=S)(OC)Oc1nc(Cl)c(Cl)cc1Cl"
  Readout number: 1.64
- Compound: "CC1=NNC(=O)N(N=Cc2cccnc2)C1"
  Readout number: 1.43
- Compound: "COC(=O)c1ccc(I)cc1S(=O)(=O)NC(=O)Nc1nc(C)nc(OC)n1"
  Readout number: 1.48
- Compound: "CN1CCCC1c1ccc[n+](C2OC(C(=O)[O-])C(O)C(O)C2O)c1 (stereo not drawn) [Nicotine Glucuronide]"
  Readout number: 0.11
- Compound: "CCNc1nc(Cl)nc(NC(C)(C)C)n1"
  Readout number: 1.49
- Compound: "CN1CCCC1c1cccnc1 (stereo not drawn)"
  Readout number: 0.53
- Compound: "CC(=O)Oc1ccccc1C(=O)O"
  Readout number: 0.93
- Compound: "CNC(=O)N(C)c1nc2ccccc2s1"
  Readout number: 1.29
- Compound: "COc1ccc2c3c1OC1C(O)C=CC4C(C2)N(C)CCC341 (stereo not drawn)"
  Readout number: 0.71
- Compound: "COc1ccc(C(CN(C)C)C2(O)CCCCC2)cc1 (stereo not drawn)"
  Readout number: 0.99
- Compound: "COc1cc(OC)n2nc(S(=O)(=O)Nc3c(Cl)ccc(C)c3Cl)nc2n1"
  Readout number: 1.39
- Compound: "CN1CCC23c4c5ccc(O)c4OC2C(O)C=CC3C1C5 (stereo not drawn)"
  Readout number: 0.63
- Compound: "CCNc1nc(Cl)nc(NCC)n1"
  Readout number: 1.16
- Compound: "Cc1ccc(NC(=O)N(C)C)cc1Cl"
  Readout number: 1.31
- Compound: "CC(C)(C)C(O)C(Oc1ccc(Cl)cc1)n1cncn1 (stereo not drawn)"
  Readout number: 1.50
- Compound: "CC1CCC2C(C)C3C(CC4C5CC=C6CC(O)CCC6(C)C5CCC43C)N2C1 (stereo not drawn)"
  Readout number: 1.39
- Compound: "COC(=O)c1ccccc1S(=O)(=O)NC(=O)Nc1nc(C)nc(OC)n1"
  Readout number: 1.29
- Compound: "CC(C)c1ccc(NC(=O)N(C)C)cc1"
  Readout number: 1.37
- Compound: "COC(=O)c1ccc(CNS(C)(=O)=O)cc1S(=O)(=O)NC(=O)Nc1nc(OC)cc(OC)n1"
  Readout number: 1.42
- Compound: "N#CCNC(=O)c1cnccc1C(F)(F)F"
  Readout number: 0.88
- Compound: "COCc1cnc(C2=NC(C)(C(C)C)C(=O)N2)c(C(=O)O)c1 (stereo not drawn)"
  Readout number: 0.97

---

# Method description: RP, Waters ACQUITY UPLC HSS T3, 0.1 mL/min; A: water + 0.01% formic acid; B: acetonitrile + 0.01% formic acid; gradient (min/%B) 0/10 38/45 45/45 55/0 60/0
# Condition set: stereoisomer not certain
Measured parameter: LC retention time (min)

- Compound: "NCCc1c[nH]c2ccc(O)cc12 [5-Hydroxytryptamine]"
  Quantity unit: "min"
  Readout number: 4.3
- Compound: "CC(C)(C)C(O)(CCc1ccc(Cl)cc1)Cn1cncn1 (stereo not given) [Tebuconazole]"
  Quantity unit: "min"
  Readout number: 39.5
- Compound: "C#CC(C)(C)NC(=O)c1cc(Cl)cc(Cl)c1 [Propyzamide]"
  Quantity unit: "min"
  Readout number: 35.6
- Compound: "CCCOC(=O)c1ccc(O)cc1 [Propylparaben]"
  Quantity unit: "min"
  Readout number: 22
- Compound: "CNCCC(Oc1ccc(C(F)(F)F)cc1)c1ccccc1 (stereo not given) [Fluoxetine]"
  Quantity unit: "min"
  Readout number: 23.7
- Compound: "Cc1cnc2c(C(=O)O)c(Cl)ccc2c1 [Quinmerac]"
  Quantity unit: "min"
  Readout number: 8.87
- Compound: "CCNc1nc(N)nc(Cl)n1 [Atrazine-desisopropyl]"
  Quantity unit: "min"
  Readout number: 6.98
- Compound: "Cc1cccc(C)c1N(Cn1cccn1)C(=O)CCl [Metazachlore]"
  Quantity unit: "min"
  Readout number: 26.6
- Compound: "CS(=O)(=O)c1ccc(C(=O)C2C(=O)CCCC2=O)c(Cl)c1 [Sulcotrione]"
  Quantity unit: "min"
  Readout number: 18.6
- Compound: "C#CC1(O)CCC2C3CCc4cc(O)ccc4C3CCC21C (stereo not given) [Ethinylestradiol]"
  Quantity unit: "min"
  Readout number: 31.6

---

# Method description: RP, Waters ACQUITY UPLC HSS T3, 0.1 mL/min; A: water + 0.01% formic acid; B: acetonitrile + 0.01% formic acid; gradient (min/%B) 0/10 38/45 45/45 55/0 60/0
# Condition set: stereoisomer not certain
Criterion: LC retention time meeting or surpassing 20 min. Met: y. Not met: n.

- Compound: "NC(=O)Nc1ccc(Cl)c(Cl)c1"
  Group label: "n"
- Compound: "O=[N+]([O-])/N=C1\\NCCN1Cc1ccc(Cl)nc1"
  Group label: "n"
- Compound: "Oc1ccccc1-c1ccccc1"
  Group label: "y"
- Compound: "O=C(O)Cc1c[nH]c2ccc(O)cc12 [Hydroxyindoleacetic acid]"
  Group label: "n"
- Compound: "COc1cc(OC)nc(NC(=O)NS(=O)(=O)c2ncccc2C(=O)N(C)C)n1"
  Group label: "n"
- Compound: "Oc1cc(Cl)ccc1Oc1ccc(Cl)cc1Cl"
  Group label: "y"
- Compound: "CC12CCC3C(CCC4=CC(=O)CCC43C)C1CCC2=O (centres undefined)"
  Group label: "y"
- Compound: "CC1(C)CCC(=Cc2ccc(Cl)cc2)C1(O)Cn1cncn1 (centres undefined)"
  Group label: "y"
- Compound: "CCNC(=O)C(C)OC(=O)Nc1ccccc1 (centres undefined) [Carbetamide]"
  Group label: "n"

---

# Method description: RP, Waters ACQUITY UPLC HSS T3, 0.1 mL/min; A: water + 0.01% formic acid; B: acetonitrile + 0.01% formic acid; gradient (min/%B) 0/10 38/45 45/45 55/0 60/0
# Condition set: stereoisomer not certain
Measured parameter: log10 LC retention time (log10 of the value in min)

- Compound: "CC(Oc1ccc(Cl)cc1Cl)C(=O)O (stereo not given)"
  log10 LC retention time: 1.00
- Compound: "CC(=O)OCC[N+](C)(C)C"
  log10 LC retention time: 0.14
- Compound: "CN1C(=O)CCC1c1cccnc1 (stereo not given)"
  log10 LC retention time: 0.63
- Compound: "CC12CCC(=O)C=C1CCC1C2C(=O)CC2(C)C1CCC2(O)C(=O)CO (stereo not given)"
  log10 LC retention time: 1.21
- Compound: "COc1cc(OC)nc(NC(=O)NS(=O)(=O)N(C)S(C)(=O)=O)n1"
  log10 LC retention time: 1.33
- Compound: "CCCOC(=O)NCCCN(C)C"
  log10 LC retention time: 0.75
- Compound: "Nc1cnn(-c2ccccc2)c(=O)c1Cl"
  log10 LC retention time: 0.97
- Compound: "COC(=O)c1ccc(O)cc1"
  log10 LC retention time: 1.00
- Compound: "CCc1cccc(C)c1N(C(=O)CCl)C(C)COC (stereo not given)"
  log10 LC retention time: 1.43
- Compound: "CCCCCC(O)C=CC1C(=O)CC(O)C1CC=CCCCC(=O)O (stereo not given) [Prostaglandin D2]"
  log10 LC retention time: 1.44
